We begin with a simple list: items and their reported pIC50.
# Test system: HepG2
# assay-remarks: Antiproliferative activity against human HepG2 cells assessed as inhibition of cell proliferation measured after 72 hrs by MTT assay
# Assay type: functional, cell-based
# cond: HepG2, 72 h
pIC50: −log10 of the molar value.
quantity-kind: pIC50

- compound: "COC(=O)CCNC(=O)[C@]1(C)CC[C@]2(C)CC[C@]3(C)C4=CC=C5C(=CC(=O)C(O)=C5C)[C@]4(C)CC[C@@]3(C)[C@@H]2C1"
  quantity-kind: "pIC50"
  observed-measurement: 5.98
- compound: "CC1=C(O)C(=O)C=C2C1=CC=C1[C@@]2(C)CC[C@@]2(C)[C@@H]3C[C@](C)(C(=O)NC(CC(=O)OC(C)(C)C)C(=O)NC(CCC(=O)OC(C)(C)C)C(=O)OC(C)(C)C)CC[C@]3(C)CC[C@]12C (stereo not given in full)"
  quantity-kind: "pIC50"
  observed-measurement: 4.69
- compound: "CC1=C(O)C(=O)C=C2C1=CC=C1[C@@]2(C)CC[C@@]2(C)[C@@H]3C[C@](C)(C(=O)NC(CC(=O)NC(CCC(=O)OC(C)(C)C)C(=O)OC(C)(C)C)C(=O)OC(C)(C)C)CC[C@]3(C)CC[C@]12C (stereo not given in full)"
  quantity-kind: "pIC50"
  observed-measurement: 5.06
- compound: "CC1=C(O)C(=O)C=C2C1=CC=C1[C@@]2(C)CC[C@@]2(C)[C@@H]3C[C@](C)(C(=O)NC(CC(=O)OC(C)(C)C)C(=O)OC(C)(C)C)CC[C@]3(C)CC[C@]12C (stereo not given in full)"
  quantity-kind: "pIC50"
  observed-measurement: 5.45
- compound: "CC1=C(O)C(=O)C=C2C1=CC=C1[C@@]2(C)CC[C@@]2(C)[C@@H]3C[C@](C)(C(=O)NC(CCC(=O)OC(C)(C)C)C(=O)OC(C)(C)C)CC[C@]3(C)CC[C@]12C (stereo not given in full)"
  quantity-kind: "pIC50"
  observed-measurement: 5.60

###

# Test system: BEAS-2B
# assay-remarks: Antiproliferative activity against human BEAS-2B cells assessed as inhibition of cell proliferation measured after 72 hrs by MTT assay
# Format: functional, cell-based
pIC50: −log10 of the molar value.
Listed compounds paired with reported pIC50

- compound: "CC1=C(O)C(=O)C=C2C1=CC=C1[C@@]2(C)CC[C@@]2(C)[C@@H]3C[C@](C)(C(=O)NC(CCC(=O)NC(CCC(=O)OC(C)(C)C)C(=O)OC(C)(C)C)C(=O)OC(C)(C)C)CC[C@]3(C)CC[C@]12C (stereo not given in full)"
  pIC50: 4.41
- compound: "CC1=C(O)C(=O)C=C2C1=CC=C1[C@@]2(C)CC[C@@]2(C)[C@@H]3C[C@](C)(C(=O)NCCCNC(=O)[C@@]4(C)CC[C@@]5(C)CC[C@@]6(C)C7=CC=C8C(=CC(=O)C(O)=C8C)[C@@]7(C)CC[C@]6(C)[C@H]5C4)CC[C@]3(C)CC[C@]12C"
  pIC50: 6.39
- compound: "CC1=C(O)C(=O)C=C2C1=CC=C1[C@@]2(C)CC[C@@]2(C)[C@@H]3C[C@](C)(C(=O)NC(CC(=O)OC(C)(C)C)C(=O)OC(C)(C)C)CC[C@]3(C)CC[C@]12C (stereo not given in full)"
  pIC50: 5.43
- compound: "CC1=C(O)C(=O)C=C2C1=CC=C1[C@@]2(C)CC[C@@]2(C)[C@@H]3C[C@](C)(C(=O)O)CC[C@]3(C)CC[C@]12C [CELASTROL]"
  pIC50: 6.34
- compound: "CC1=C(O)C(=O)C=C2C1=CC=C1[C@@]2(C)CC[C@@]2(C)[C@@H]3C[C@](C)(C(=O)NC(CC(=O)OC(C)(C)C)C(=O)NC(CC(=O)OC(C)(C)C)C(=O)OC(C)(C)C)CC[C@]3(C)CC[C@]12C (stereo not given in full)"
  pIC50: 6.10

Reference source: ChEMBL document CHEMBL4842337
